- System: CAF#5 (primary prostate cancer-associated fibroblasts of myCAF-like type)
- ASSAY_EXPLANATION: drug sensitivity score (DSS2, normalised partial AUC of dose-response, 72 h CellTiter-Glo viability) (DSS (dimensionless)); higher = more sensitive (stronger growth inhibition / cytotoxicity); extreme values may be limits of the assay
ATTRIBUTE_MEASURED: drug sensitivity score

Here is how some compounds turned out for drug sensitivity score.
# COMPOUND, drug sensitivity score
rows = [
    ("CC[C@H](Nc1ncnc2[nH]cnc12)c1nc2cccc(F)c2c(=O)n1-c1ccccc1 [Idelalisib] (tested concentration range 1-10000 nM)", 3.6),
    ("CN(Cc1cnc2nc(N)nc(N)c2n1)c1ccc(C(=O)N[C@@H](CCC(=O)O)C(=O)O)cc1 [Methotrexate] (tested concentration range 0.5-5000 nM)", 0),
]

Query compound follows.
Any idea what its drug sensitivity score is? The compound is CNc1nc(Nc2cn(C(C)(C)C#N)nc2C)ncc1C(F)(F)F [GNE-0877] (tested concentration range 0.1-1000 nM)
0

###

Entries and their measured drug sensitivity score follow.
- Test system: CAF#4 (primary prostate cancer-associated fibroblasts of iCAF-like type)
- ASSAY_EXPLANATION: drug sensitivity score (DSS2, normalised partial AUC of dose-response, 72 h CellTiter-Glo viability) (DSS (dimensionless)); higher = more sensitive (stronger growth inhibition / cytotoxicity); extreme values may be limits of the assay

Here is how some compounds turned out for drug sensitivity score.
# COMPOUND, TARGET_OF_ASSAY, ATTRIBUTE_MEASURED, RESULT
data = [
    ("C[C@@H](NC(=O)c1ncnc(N)c1Cl)c1ncc(C(=O)Nc2cc(C(F)(F)F)c(Cl)cn2)s1 [TAK-580] (tested concentration range 1-10000 nM)", "CAF#4", "drug sensitivity score", 2.3),
    ("C=C(c1ccc(C(=O)O)cc1)c1cc2c(cc1C)C(C)(C)CCC2(C)C [Bexarotene] (tested concentration range 1-10000 nM)", "CAF#4", "drug sensitivity score", 3.7),
    ("O=C(O)c1ccc2c(c1)nc(Nc1cccc(Cl)c1)c1ccncc12 [Silmitasertib] (tested concentration range 1-10000 nM)", "CAF#4", "drug sensitivity score", 2.2),
]

Any idea what its drug sensitivity score is? The compound is CC(C)Oc1ccc(C(=O)N[C@H](CNC(=O)CN(C)C)Cc2ccc(-c3cn4cccc([C@H](C)O)c4n3)cc2)cc1Cl (tested concentration range 1-10000 nM)
5.5

Ok, now COC(=O)c1ccc([C@H]2c3[nH]c4ccccc4c3C[C@H](C(=O)OC)N2C(=O)CCl)cc1 [RSL3] (tested concentration range 1-10000 nM)
0

Ok, now COc1cc(OC)cc(N(CCNC(C)C)c2ccc3ncc(-c4cnn(C)c4)nc3c2)c1 [Erdafitinib] (tested concentration range 0.1-1000 nM)
8.8

###

- Test system: CAF#2 (primary prostate cancer-associated fibroblasts of iCAF-like type)
- ASSAY_EXPLANATION: drug sensitivity score (DSS2, normalised partial AUC of dose-response, 72 h CellTiter-Glo viability) (DSS (dimensionless)); higher = more sensitive (stronger growth inhibition / cytotoxicity); extreme values may be limits of the assay
Binary call on drug sensitivity score: Condition met from 5 upward, Condition not met beneath that.

# example entries with known answers
# COMPOUND, ANSWER_LABEL
measured = [
    ("CN(C)CC#Cc1ccc(OCCCc2sc(N3CCc4cccc(C(=O)Nc5nc6ccccc6s5)c4C3)nc2C(=O)O)c(F)c1 (tested concentration range 1-10000 nM)", "Condition not met"),
    ("CN1CCC(COc2cnc(-c3cccc(Cn4nc(-c5cccc(C#N)c5)ccc4=O)c3)nc2)CC1 [Tepotinib] (tested concentration range 0.1-1000 nM)", "Condition not met"),
    ("COc1ccc(CCc2nc3cc(-c4c(C)noc4C)ccc3n2C[C@H](C)N2CCOCC2)cc1Cl [SGC-CBP30] (tested concentration range 2.5-25000 nM)", "Condition not met"),
    ("O=C(O)CC[C@H]1CC[C@@](c2cc(F)ccc2F)(S(=O)(=O)c2ccc(Cl)cc2)CC1 [MK-0752] (tested concentration range 0.1-1000 nM)", "Condition not met"),
    ("C[C@@H](Oc1ccc2[nH]nc(/C=C/c3cnn(CCO)c3)c2c1)c1c(Cl)cncc1Cl (tested concentration range 0.1-1000 nM)", "Condition met"),
    ("C[C@]12CC[C@H](O)CC1=CC[C@@H]1[C@@H]2CC[C@]2(C)C(c3cccnc3)=CC[C@@H]12 [Abiraterone] (tested concentration range 0.5-5000 nM)", "Condition not met"),
    ("N#CC(c1ccnc(OCc2ccc(CN3CCOCC3)cc2)n1)c1nc2ccccc2s1 (stereo unspecified) [Bentamapimod] (tested concentration range 1-10000 nM)", "Condition not met"),
    ("C=CC(=O)Nc1cccc(Nc2nc(Nc3ccc(N4CCN(C(C)=O)CC4)cc3OC)ncc2C(F)(F)F)c1 [Rociletinib] (tested concentration range 0.5-5000 nM)", "Condition met"),
    ("COc1cc(C(=O)O)ccc1NC(=O)[C@@H]1N[C@@H](CC(C)(C)C)[C@](C#N)(c2ccc(Cl)cc2F)[C@H]1c1cccc(Cl)c1F [Idasanutlin] (tested concentration range 1-10000 nM)", "Condition met"),
]

Next, consider the following compound.
Reported drug sensitivity score reaches at least 5 for Cn1ncnc1[C@H]1c2n[nH]c(=O)c3cc(F)cc(c23)N[C@@H]1c1ccc(F)cc1 [Talazoparib] (tested concentration range 0.1-1000 nM) ?
Condition met

Data provenance is the supplement of paper PMC12592484.
